- Measurement notes: Ex vivo biodistribution (gamma-counting)
- Assay type: in vivo, mice
- Experimental context: male, athymic nu/nu, mouse, blood, iv, 3.7 MBq, total radioactivity; 30 min after injection, without blocking, mean ± SD, n = 4; read-out: blood tracer concentration
Residues, ends and D or L forms follow the SMILES beside them. *: point of attachment. Propanoyl(2-F) = CC(F)C(=O)*
Property name: tissue uptake at 0.5 h (%ID/g)
Write the number in %ID/g without appending the unit.

Entry CC(C)C[C@H](NC(=O)[C@@H](N)Cc1ccc(O)cc1)C(=O)N[C@@H](Cc1ccccc1)C(=O)N[C@@H](CO)C(=O)N[C@H](C(=O)N[C@@H](Cc1c[nH]cn1)C(=O)N[C@@H](Cc1c[nH]c2ccccc12)C(=O)N1CCC[C@H]1C(=O)N1CCC[C@H]1C(=O)N[C@@H](CC(C)C)C(=O)N[C@@H](CCCCNC(=O)C(C)F)C(=O)N[C@@H](C)C(=O)O)C(C)C (stereo partly shown) [[^18F]FP-Met-pep1] (H-YLFSVHWPPLK(Propanoyl(2-F))A-OH) ; tissue uptake at 0.5 h = 1.55
